target system: Tyrosine-protein kinase HCK (Homo sapiens)
test summary: inhibitors of Nef-activated human Hck kinase, primary screen, biochemical, Z-Lyte FRET, 384-well, Hck-YEEI (AID 463187);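 further: 0% = DMSO with Hck plus Nef and 100% = Hck alone without Nef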
condition info: Recombinant Hck-YEEI plus Nef, Z-Lyte FRET kinase assay; at 20 µM; hits give high values
The whole screen tested about 220,000 compounds, of which about 1,500 (0.68%) were called active. What follows is part of a selection rich in actives, with near analogues and random picks from the rest.
measurement name: inhibition (%)
Your answer should be a plain number; it is taken to be in %.

Sample records with inhibition:
CC(CNc1ccc([N+](=O)[O-])c2cccnc12)Nc1c([N+](=O)[O-])cc(C(F)(F)F)cc1[N+](=O)[O-] (configuration not stated) | -2.43
CS(=O)(=O)N(CC(=O)N1CCN(Cc2ccccc2)CC1)c1ccc2c(c1)OCCO2 | 1.45
Cc1cc(C)c2c(n1)nn1c(N3CCN(c4cccc(Cl)c4)CC3)cc(C)nc21 | 35.2

Recorded inhibition (compound `C=CCn1c(N)c(S(=O)(=O)c2cccs2)c2nc3ccccc3nc21` ): 21.6

Recorded inhibition (compound `CC(=O)c1cccc(NC(=O)c2ccncc2)c1` ): -1.38

Recorded inhibition (compound `C=CCOc1c2ccc(C(=O)N(CC)c3ccc(OC)cc3)cc2nn1C` ): -0.652

Recorded inhibition (compound `CCN(CC)CCn1c(N)c(S(=O)(=O)c2ccccc2)c2nc3ccccc3nc21` ): 11.1

---

target system: Tyrosine-protein kinase HCK (Homo sapiens) (UniProt P08631)
Sequence (P08631 whole entry, looked up): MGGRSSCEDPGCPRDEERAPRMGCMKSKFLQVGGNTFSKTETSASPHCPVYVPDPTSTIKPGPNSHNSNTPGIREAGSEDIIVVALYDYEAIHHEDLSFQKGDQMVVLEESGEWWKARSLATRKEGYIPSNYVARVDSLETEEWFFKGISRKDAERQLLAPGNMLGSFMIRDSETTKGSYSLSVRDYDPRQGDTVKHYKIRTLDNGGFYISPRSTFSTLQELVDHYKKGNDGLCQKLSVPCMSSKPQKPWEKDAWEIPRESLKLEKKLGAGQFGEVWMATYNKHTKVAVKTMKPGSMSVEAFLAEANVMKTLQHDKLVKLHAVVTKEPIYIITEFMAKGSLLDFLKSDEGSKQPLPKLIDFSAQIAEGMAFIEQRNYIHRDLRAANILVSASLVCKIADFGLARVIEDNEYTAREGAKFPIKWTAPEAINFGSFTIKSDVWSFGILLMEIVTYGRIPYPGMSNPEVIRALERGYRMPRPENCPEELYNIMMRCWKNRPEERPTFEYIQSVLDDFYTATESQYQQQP
test summary: inhibitors of Nef-activated human Hck kinase, primary screen, biochemical, Z-Lyte FRET, 384-well, Hck-YEEI (AID 463187);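 further: 0% = DMSO with Hck plus Nef and 100% = Hck alone without Nef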
condition info: Recombinant Hck-YEEI plus Nef, Z-Lyte FRET kinase assay; at 20 µM; hits give high values
The campaign covered roughly 220,000 compounds. About 1,500 (0.68%) were called active. This excerpt belongs to a sample that is enriched for actives.
measurement name: inhibition (%)
Your answer should be a plain number; it is taken to be in %.

Cc1sc2c(c1C)c(=O)n(-c1ccccc1)c(=O)n2CC(=O)NCC1CCCO1 (stereo unspecified) | -19.9
CCNC(=S)NNC(=O)c1ccc2ncccc2c1 | 27.6

Recorded inhibition (compound `CN(C)CC(C)(C)CNC(=O)c1cc(Br)cc(Br)c1O` ): 21.9

Recorded inhibition (compound COc1cccc(CNC(=O)CCC2CCCN(Cc3ccc(OC(F)F)cc3)C2)c1 (stereo unspecified) ): 52.7

Recorded inhibition (compound CCOc1ccc(N2C(=O)Nc3ccccc3C2(O)C(=O)NCc2ccco2)cc1 (stereo unspecified) ): 20.7

---

target system: Tyrosine-protein kinase HCK (Homo sapiens) (UniProt P08631)
test summary: inhibitors of Nef-activated human Hck kinase, primary screen, biochemical, Z-Lyte FRET, 384-well, Hck-YEEI (AID 463187);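 further: 0% = DMSO with Hck plus Nef and 100% = Hck alone without Nef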
condition info: Recombinant Hck-YEEI plus Nef, Z-Lyte FRET kinase assay; at 20 µM; hits give high values
In all, about 220,000 compounds went through this assay and about 1,500 (0.68%) were called active. The full list was thinned out, with actives kept by preference.
In this section, each of the compounds is paired with its reported inhibition.
Your answer should be a plain number; it is taken to be in %.

COC(=O)C1=C(C)Nc2ncnn2C1c1cccnc1 (configuration not stated) | 0.821
Cc1nn(Cc2ccc(C(=O)N3N=C(C(F)F)CC3(O)C(F)F)cc2)c(C)c1[N+](=O)[O-] (configuration not stated) | -2.69

Recorded inhibition (compound `CCC(CC)C(=O)Nc1ccc(S(=O)(=O)Nc2nccs2)cc1` ): 15.9

Recorded inhibition (compound Brc1ccc(C2=CC(c3ccco3)n3ncnc3N2)cc1 (configuration not stated) ): -4.23

Recorded inhibition (compound `Cc1ccc2nc(-c3ccccc3)cc(C(=O)O)c2c1` ): 3.19

Recorded inhibition (compound `Cc1ccc2nc(-c3ccccn3)cc(C(=O)Nc3ccc4c(c3)OCO4)c2c1` ): -2.84

Recorded inhibition (compound `Cc1ccc2cc(CCNC(=O)c3ccc4c(c3)OCO4)c(=O)[nH]c2c1` ): 0.571
